Sourced from patent US9637473B2

System: P. Falciparum NF54
Experiment Description: Plasmodium falciparum in vitro assay ([3H]-hypoxanthine incorporation)
Assay type: cell-based
Assay Context: Plasmodium falciparum, Erythrocyte, P. Falciparum NF54, erythrocytic stages in human red blood cells, 50% human serum
Measured Attribute: IC50 (nM)

Answered examples (5):
Data request: Given the compound CC(=O)n1cc(CN2CCC(N(Cc3ccc(N(C)c4ccncc4)cc3)C(=O)/C=C/c3ccc(C(F)(F)F)cc3)CC2)c2ccccc21 , write its reported IC50.
Data returned: 44

Data request: Given the compound Cc1cc(Nc2ccc(CN(C(=O)/C=C/c3ccc(C(F)(F)F)cc3)C3CCN(C4CCCC4)CC3)cn2)ccn1 , write its reported IC50.
Data returned: 42

Data request: Given the compound CN1CCC(N2CCCC(N(Cc3ccc(N(C)c4ccncc4)cc3)C(=O)/C=C/c3ccc(C(F)(F)F)cc3)CC2)CC1 (racemic) , write its reported IC50.
Data returned: 18

Data request: Given the compound CN1CCC(N2CCC3(CCC(N(Cc4ccc(N(C)c5ccncc5)cc4)C(=O)/C=C/c4ccc(C(F)(F)F)cc4)CC3)CC2)CC1 , write its reported IC50.
Data returned: 21

Data request: Given the compound CN(c1ccncc1)c1ccc(CN(C(=O)/C=C/c2ccc(C(F)(F)F)cc2)[C@H]2CCCN(C3CCCC3)C2)cc1 , write its reported IC50.
Data returned: 149

[I] Cc1cc(Nc2ccc(CN(C(=O)/C=C/c3ccc(C(F)(F)F)cc3)C3CCN(C4CCN(C)CC4)CC3)cc2)ccn1
[II] COCC(C)N1CCC(N(Cc2ccc(Nc3ccnc(C)c3)cc2)C(=O)/C=C/c2ccc(C(F)(F)F)cc2)CC1 (racemic)
Data request: For the two items I and II , which reports the higher IC50 value? Selection: enter the item's label.
Data returned: I
(I: 70 nM, II: 42 nM)

###

Test system: P. Falciparum NF54
Experiment Description: Plasmodium falciparum in vitro assay ([3H]-hypoxanthine incorporation)
Format: cell-based
Assay Context: Plasmodium falciparum, Erythrocyte, P. Falciparum NF54, erythrocytic stages in human red blood cells, 50% human serum
pIC50: −log10 of the molar value. Counter-ions that a name gives are not always drawn.
Measured Attribute: pIC50

[1] Cc1cc(N(C)c2cccc(CN(C(=O)/C=C/c3ccc(C(F)(F)F)cc3)C3CCN(C(C)C)CC3)c2)ccn1 [Example 121, formate]
[2] CN1CCC(N2CCC(N(Cc3ccc(Nc4ccncc4)nc3)C(=O)/C=C/c3ccc(C(F)(F)F)cc3)CC2)CC1
Data request: Given the two records 1 and 2 , choose the one whose pIC50 value is lower. Selection: enter the item's label.
Data returned: 2
(2: 6.77, 1: 7.12)

[P] O=C(/C=C/c1ccc(C(F)(F)F)cc1)N(Cc1ccc(Nc2ccncn2)cc1)C1CCN(C2CCCC2)CC1
[Q] CN(c1ccncc1)c1ccc(CN(C(=O)/C=C/c2ccc(C(F)(F)F)cc2)[C@H]2CCN(C3CCCC3)C[C@H]2F)cc1 (racemic)
[R] Cc1cc(Nc2ccc(CN(CCCN(C)C)C(=O)/C=C/c3ccc(Cl)cc3)cc2)ccn1
Data request: Please list the entries, largest pIC50 first. Answer with the labels in sequence, matching the requested order.
Data returned: Q, R, P

###

Test system: P. Falciparum NF54
Experiment Description: Plasmodium falciparum in vitro assay ([3H]-hypoxanthine incorporation)
Assay type: cell-based
Assay Context: Plasmodium falciparum, Erythrocyte, P. Falciparum NF54, erythrocytic stages in human red blood cells, 50% human serum
pIC50: −log10 of the molar value.
Measured Attribute: pIC50

Answered examples (4):
Data request: Specify pIC50 for CN(c1ccncc1)c1ccc(CN(C(=O)/C=C/c2ccc(C(F)(F)F)cc2)[C@H]2CC[C@@H](N(C)C)CC2)cc1 , system P. Falciparum NF54.
Data returned: 7.47

Data request: Specify pIC50 for CN(c1ccncc1)c1ccc(CN(C(=O)/C=C/c2ccc(C(F)(F)F)cc2)C2CCN(C3CCCC3)CC2)cc1 , system P. Falciparum NF54.
Data returned: 7.96

Data request: Specify pIC50 for CN(c1ccncc1)c1ccc(CN(C(=O)/C=C/c2ccc(C(F)(F)F)cc2)[C@H]2CC[C@H](N(C)C)CC2)cc1 , system P. Falciparum NF54.
Data returned: 7.20

Data request: Specify pIC50 for CN(c1ccncc1)c1ccc(CN(C(=O)/C=C/c2ccc(C(F)(F)F)cc2)C2CCN(Cc3cncn3C)CC2)cc1 , system P. Falciparum NF54.
Data returned: 7.27

[I] CC(C)Oc1ccc(/C=C/C(=O)N(Cc2ccc(N(C)c3ccncc3)cc2)C2CCN(Cc3ccccc3)CC2)cc1
[II] Cc1cc(Nc2ccc(CN(C(=O)/C=C/c3ccc(C(F)(F)F)cc3)C3CCN(Cc4nc(C)cs4)CC3)cc2)ccn1
Data request: Given the two records I and II , choose the one whose pIC50 value is lower. Selection: enter the item's label.
Data returned: II
